Measured values drawn from patent US7737128B2 for this set.

ASSAY_DETAILS: in vivo
STUDY_CONDITIONS: both sexes, Crl: CD (SD)IGS BR, rat, po
REPORTED_METRIC: NOAEL at 28 days (mg/kg/day)
Field: numeric (mg/kg/day). Do not append units.

### Prompt Fill in: NOAEL at 28 days of CC(=O)OC[C@H]1O[C@@H](n2ccc(=O)[nH]c2=O)[C@H](OC(C)=O)[C@@H]1OC(C)=O is ___
### Response 2000
